Data credit: patent US12042539B2

# Experiment Summary: Phase solubility of omeprazole at different concentrations of poloxamer 188
# Format: physicochemical
# Experimental Parameters: 0% w/v poloxamer 188 (base solvent not stated), thermodynamic from solid; 0 % w/v Poloxamer Content; read-out: Soluble fraction
Measured Metric: solubility (µg/mL)
Use µg/mL as the unit, but write only the number.

q: // returns reported solubility for input COc1ccc2[nH]c([S+]([O-])Cc3ncc(C)c(OC)c3C)nc2c1 (stereo not shown) [Omeprazole]
a: 218

---

# Experiment Summary: Phase solubility of omeprazole at different concentrations of poloxamer 188
# Assay type: physicochemical
# Experimental Parameters: poloxamer 188 solution (0.5% w/v), aqueous with cosolvent or surfactant or cyclodextrin, thermodynamic from solid; 0.5 % w/v Poloxamer Content; read-out: Soluble fraction
Measured Metric: solubility (µg/mL)
Use µg/mL as the unit, but write only the number.

q: // returns reported solubility for input COc1ccc2[nH]c([S+]([O-])Cc3ncc(C)c(OC)c3C)nc2c1 (stereo not shown)
a: 313

---

# Experiment Summary: Phase solubility of omeprazole at different concentrations of poloxamer 188
# Assay type: physicochemical
# Experimental Parameters: poloxamer 188 solution (1% w/v), aqueous with cosolvent or surfactant or cyclodextrin, thermodynamic from solid; 1 % w/v Poloxamer Content; read-out: Soluble fraction
Measured Metric: solubility (µg/mL)
Use µg/mL as the unit, but write only the number.

q: // returns reported solubility for input COc1ccc2[nH]c([S+]([O-])Cc3ncc(C)c(OC)c3C)nc2c1 (stereo not shown) [Omeprazole]
a: 342

---

# Experiment Summary: Phase solubility of omeprazole at different concentrations of poloxamer 188
# Assay type: physicochemical
# Experimental Parameters: poloxamer 188 at 4% w/v (base solvent not stated), aqueous with cosolvent or surfactant or cyclodextrin, thermodynamic from solid; 4 % w/v Poloxamer Content; read-out: Soluble fraction
Measured Metric: solubility (µg/mL)
Use µg/mL as the unit, but write only the number.

q: // returns reported solubility for input COc1ccc2[nH]c([S+]([O-])Cc3ncc(C)c(OC)c3C)nc2c1 (stereo not shown) [Omeprazole]
a: 946
